Listed molecules paired with reported MIC values, Trichophyton rubrum
# Tested on: Trichophyton rubrum
# Test Details: Determination of fungal susceptibility (MIC, microdilution in CYG medium)
# Type: cell-based
# Measurement Setup: single isolate, 5 days at 30° C., growth (OD 405 nm) inhibited to 35% of control or less

// worked examples, MIC values, Trichophyton rubrum included
[[record]]
molecule = "Br.CC(C)c1ccc(C2NCc3c(Cl)cccc3-n3cccc32)cc1 (stereo not shown)"
quantity_name = "MIC values, Trichophyton rubrum"
measured_value = "0.32 10^−6 M"

[[record]]
molecule = "Br.Clc1cccc2c1CNC(c1ccsc1)c1cccn1-2 (stereo not shown)"
quantity_name = "MIC values, Trichophyton rubrum"
measured_value = "3.2 10^−6 M"

[[record]]
molecule = "Br.Cc1ccc(C2NCc3c(Cl)cccc3-n3cccc32)cc1 (stereo not shown)"
quantity_name = "MIC values, Trichophyton rubrum"
measured_value = "0.32 10^−6 M"

[[record]]
molecule = "Br.CCOc1ccc(C2NCc3ccc(Cl)cc3-n3cccc32)cc1 (stereo not shown)"
quantity_name = "MIC values, Trichophyton rubrum"
measured_value = "10 10^−6 M"


Q: Data request, read-out MIC values, Trichophyton rubrum, for Br.FC(F)(F)c1cccc(C2NCc3c(Cl)cccc3-n3cccc32)c1 (stereo not shown)
Ans: 2.1 10^−6 M

Q: Would you mind telling me what MIC values, Trichophyton rubrum value was observed for Br.CC(C)c1ccc(C2NCc3ccc(Cl)cc3-n3cccc32)cc1 (stereo not shown) ?
Ans: 1 10^−6 M

Q: # lookup: MIC values, Trichophyton rubrum of CCc1ccc(C2c3cccn3-c3cccc(Cl)c3CN2C)cc1 (stereo not shown)
Ans: 3.2 10^−6 M
